testSystem: T1, ttPolX (Thermus thermophilus HB8, UniProt Q5SJ64 1-575)
T1 sequence: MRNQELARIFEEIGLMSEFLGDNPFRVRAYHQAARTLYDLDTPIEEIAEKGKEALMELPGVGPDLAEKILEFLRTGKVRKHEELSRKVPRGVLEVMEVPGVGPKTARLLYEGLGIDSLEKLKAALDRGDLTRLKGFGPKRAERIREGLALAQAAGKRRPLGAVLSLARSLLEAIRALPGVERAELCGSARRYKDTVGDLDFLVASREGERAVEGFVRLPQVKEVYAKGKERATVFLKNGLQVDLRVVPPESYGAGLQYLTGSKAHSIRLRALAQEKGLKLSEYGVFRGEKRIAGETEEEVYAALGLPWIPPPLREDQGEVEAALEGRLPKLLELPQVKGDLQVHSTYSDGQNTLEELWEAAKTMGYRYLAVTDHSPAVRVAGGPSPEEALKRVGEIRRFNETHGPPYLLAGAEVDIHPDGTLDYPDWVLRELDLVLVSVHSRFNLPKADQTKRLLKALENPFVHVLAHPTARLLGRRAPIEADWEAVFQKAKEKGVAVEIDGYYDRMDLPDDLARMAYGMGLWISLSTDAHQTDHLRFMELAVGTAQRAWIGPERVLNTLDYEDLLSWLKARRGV
assayOverview: EMSA
parameterMeasured: Kd (µM)
Form entry: value (µM) — number only.

Tell me Kd reported for 21F/40T/P18G 5'-phosphorylated 1-nt gapped DNA (dsDNA, 5'-phosphate on 18G (P18G)) DNA 1: CACTGGCGGTCGTTCTATCGGGTGTTGCTTTAGTTGTCAT DNA 2: ATGACAACTAAAGCAACACCC DNA 3: ATAGAACGACCGCCAGTG
0.3

Reference source for all entries: paper PMC2665239
